MEASUREMENT_NOTES: Immunosuppressive activity in mouse concanavalin A-stimulated peripheral blood leukocyte assessed as inhibition of leukocyte proliferation by [3H]thymidine incorporation assay
Assay type: functional
pEC50: −log10 of the molar value.
The entries below come with measured pEC50 values attached.
REPORTED_METRIC: pEC50

CCCCCCCCCN(CC(=O)N[C@H]1CCOC1=O)OCc1ccccc1 : 4.77
CCCCCCCCNC(=O)CC(=O)N[C@H]1CCOC1=O : 4.46
CCCCCCCCCC(CC(=O)N[C@H]1CCOC1=O)OC(C)=O (mixture of isomers) : 5.28
CCCCCCCCNC(=O)C(F)C(=O)N[C@H]1CCOC1=O (stereo not given in full) : 4.59
CCCCCCCCC[S+]([O-])CC(=O)N[C@H]1CCOC1=O (stereo not given in full) : 4.57
CCCCCCCCNC(=O)CC(=O)Nc1ccc2[nH]ncc2c1 : 4.26
CCCCCCCCCN(N)CC(=O)N[C@H]1CCOC1=O : 5.05
CCCCCCCCNC(=O)CC(=O)Nc1ccccc1C(N)=O : 4.60
CCCCCCCCCC(=O)CC(=O)N[C@H]1CCC(=O)NC1=O : 4.11
CCCCCCCCCS(=O)(=O)CC(=O)N[C@H]1CCOC1=O : 4.51
CCOCCOCCNC(=O)CC(=O)N[C@@H]1CCC[C@@H]1O : 3.72
CCCCCCCCNC(=O)CC(=O)Nc1ccccn1 : 4.74
CCCCOCCCNC(=O)CC(=O)N[C@H]1CCOC1=O : 4.00
CCCCCCCCCC(=O)CC(=O)Nc1nccs1 : 4.60
CCCCCCCCC/C(O)=C1/C(=O)N[C@@H](CCO)C1=O : 4.54
CCCCCCCCNC(=O)CC(=O)NC1CCCCCC1 : 4.85
CCCCCCCCNC(=O)CC(=O)Nc1nccs1 : 4.57
CCCCCCCCNS(=O)(=O)CC(=O)N[C@H]1CCOC1=O : 4.89
CCCCCCCCCNC(=O)CC(=O)N[C@H]1CCOC1=O : 4.64
CCCCCCCCN(CCO)C(=O)CC(=O)N[C@H]1CCOC1=O : 4.39
CCCCCCCCOC(=O)CC(=O)N[C@H]1CCOC1=O : 4.43
CCCCCCCCN(CCC)C(=O)CC(=O)N[C@H]1CCOC1=O : 4.55
CCCCCCCCCC(=O)CC(=O)N[C@H]1CCOC1=O : 4.68
CCCCCCCCNC(=O)CC(=O)Nc1ccccc1C(=O)N(C)C : 4.66
CCCCCCCCNC(=O)CC(=O)Nc1cc(Cl)ccc1O : 5.03
CCCCOCCCNC(=O)CC(=O)N[C@@H]1CCC[C@@H]1O : 3.80
CCCCCCCCNC(=O)CC(=O)N[C@@H]1CCC[C@@H]1O : 4.37
CCCCCCCCNC(=O)C(F)(F)C(=O)N[C@H]1CCOC1=O : 4.01
CCCCCCCCNC(=O)CC(=O)Nc1cccc(C(N)=O)c1 : 4.82
CCCCCCCCN(C)C(=O)CC(=O)N[C@H]1CCOC1=O : 4.66
CCCCCCCCCN(O)CC(=O)N[C@H]1CCOC1=O : 4.89
CCCCCCCCNC(=O)CC(=O)N[C@@H]1CCCC[C@@H]1O : 4.49
CCCCCCCCCCCNC(=O)CC(=O)N[C@H]1CCOC1=O : 4.92
CCCCCCCCCCCS(=O)(=O)CC(=O)N[C@H]1CCOC1=O : 5.08
CCCCCCCCNC(=O)CS(=O)(=O)N[C@H]1CCOC1=O : 5.04
CCCCCCCCCCC[S+]([O-])CC(=O)N[C@H]1CCOC1=O (stereo not given in full) : 5.09
CCCCCCCCNC(=O)CC(=O)Nc1ccccc1O : 4.66

Cited source: ChEMBL document CHEMBL1773053
